protocol.description: clinical
Type: in vivo, human
experimental.setup: human, plasma, oral, 300 mg, 14 days, Day 14, median (min–max)
observed.property: Tmax (h)
Response body: numeric value in h, unit text excluded.

Answer with reported Tmax of C[C@@]1(c2nc(NC(=O)c3ncc(C(F)(F)F)cc3Cl)ccc2F)CO[C@@](C)(C(F)(F)F)C(N)=N1
2.51

====

protocol.description: clinical
Type: in vivo, human
experimental.setup: human, plasma, oral, 90 mg, single dose 90 mg, adults (6), mean (%CV)
observed.property: AUC(0-inf)

Answer with reported AUC(0-inf) of C[C@@]1(c2nc(NC(=O)c3ncc(C(F)(F)F)cc3Cl)ccc2F)CO[C@@](C)(C(F)(F)F)C(N)=N1
7.19 µg·h/mL

====

protocol.description: clinical
Type: in vivo, human
experimental.setup: human, plasma, oral, 10 mg, 3 months, Day 91, median (min–max)
Procedure: The lower limit of quantification (LLOQ) was 1 ng/ml in plasma and 2 ng/ml in urine and CSF, except for the 3‐month study where the method for CSF was more sensitive (LLOQ 0.1 ng/ml). Plasma PK parameters were calculated using actual recorded sampling times and non‐compartmental methods with Phoenix WinNonlin version 6.4 (Certara, Inc., Princeton, NJ, USA). For further details, see the Appendix Table S10 in Appendix and the accompanying clinical protocols synopsis (Appendix Table S11).
observed.property: Tmax
A bare number is not enough; add the unit after it.

Answer with reported Tmax of C[C@@]1(c2nc(NC(=O)c3ncc(C(F)(F)F)cc3Cl)ccc2F)CO[C@@](C)(C(F)(F)F)C(N)=N1 [CNP520]
2.5 h

====

protocol.description: clinical
Format: in vivo, human
experimental.setup: human, plasma, oral, 1250 mg, single dose 1250 mg, adults (2), individual data points; read-out: Cmax
Method: The lower limit of quantification (LLOQ) was 1 ng/ml in plasma and 2 ng/ml in urine and CSF, except for the 3‐month study where the method for CSF was more sensitive (LLOQ 0.1 ng/ml). Plasma PK parameters were calculated using actual recorded sampling times and non‐compartmental methods with Phoenix WinNonlin version 6.4 (Certara, Inc., Princeton, NJ, USA). For further details, see the Appendix Table S10 in Appendix and the accompanying clinical protocols synopsis (Appendix Table S11).
observed.property: Cmax (ng/mL)
Response body: numeric value in ng/mL, unit text excluded.

Answer with reported Cmax of C[C@@]1(c2nc(NC(=O)c3ncc(C(F)(F)F)cc3Cl)ccc2F)CO[C@@](C)(C(F)(F)F)C(N)=N1
2850

====

protocol.description: clinical
Assay type: in vivo, human
experimental.setup: both sexes, human, plasma, oral, participants ≥ 60 years of age, single dose; read-out: mean terminal T 1/2
observed.property: half-life

Answer with reported half-life of C[C@@]1(c2nc(NC(=O)c3ncc(C(F)(F)F)cc3Cl)ccc2F)CO[C@@](C)(C(F)(F)F)C(N)=N1
81.4 to 109 h

====

protocol.description: clinical
Format: in vivo, human
experimental.setup: human, plasma, oral, 10 mg, 14 days, Day 14, median (min–max)
Procedure: The lower limit of quantification (LLOQ) was 1 ng/ml in plasma and 2 ng/ml in urine and CSF, except for the 3‐month study where the method for CSF was more sensitive (LLOQ 0.1 ng/ml). Plasma PK parameters were calculated using actual recorded sampling times and non‐compartmental methods with Phoenix WinNonlin version 6.4 (Certara, Inc., Princeton, NJ, USA). For further details, see the Appendix Table S10 in Appendix and the accompanying clinical protocols synopsis (Appendix Table S11).
observed.property: Tmax (h)
Response body: numeric value in h, unit text excluded.

Answer with reported Tmax of C[C@@]1(c2nc(NC(=O)c3ncc(C(F)(F)F)cc3Cl)ccc2F)CO[C@@](C)(C(F)(F)F)C(N)=N1
2.53

====

protocol.description: clinical
Format: in vivo, human
experimental.setup: human, plasma, oral, 300 mg, single dose 300 mg, adults ≥ 60 years (18), median (min–max); read-out: Tmax
observed.property: Tmax (h)
Response body: numeric value in h, unit text excluded.

Answer with reported Tmax of C[C@@]1(c2nc(NC(=O)c3ncc(C(F)(F)F)cc3Cl)ccc2F)CO[C@@](C)(C(F)(F)F)C(N)=N1
5.04

====

protocol.description: clinical
Format: in vivo, human
experimental.setup: human, plasma, oral, 300 mg, single dose 300 mg, adults ≥ 60 years (18), mean (%CV); read-out: Cmax
observed.property: Cmax

Answer with reported Cmax of C[C@@]1(c2nc(NC(=O)c3ncc(C(F)(F)F)cc3Cl)ccc2F)CO[C@@](C)(C(F)(F)F)C(N)=N1 [CNP520]
440 ng/mL

====

protocol.description: clinical
Assay type: in vivo, human
experimental.setup: human, plasma, oral, 10 mg, 3 months, Day 91, ≥ 60 years, mean (CV%)
Method: The lower limit of quantification (LLOQ) was 1 ng/ml in plasma and 2 ng/ml in urine and CSF, except for the 3‐month study where the method for CSF was more sensitive (LLOQ 0.1 ng/ml). Plasma PK parameters were calculated using actual recorded sampling times and non‐compartmental methods with Phoenix WinNonlin version 6.4 (Certara, Inc., Princeton, NJ, USA). For further details, see the Appendix Table S10 in Appendix and the accompanying clinical protocols synopsis (Appendix Table S11).
observed.property: Cmax (ng/mL)
Response body: numeric value in ng/mL, unit text excluded.

Answer with reported Cmax of C[C@@]1(c2nc(NC(=O)c3ncc(C(F)(F)F)cc3Cl)ccc2F)CO[C@@](C)(C(F)(F)F)C(N)=N1
81

====

protocol.description: clinical
Assay type: in vivo, human
experimental.setup: human, plasma, oral, 90 mg, single dose 90 mg, adults ≥ 60 years (6), mean (%CV); read-out: Cmax
observed.property: Cmax (ng/mL)
Response body: numeric value in ng/mL, unit text excluded.

Answer with reported Cmax of C[C@@]1(c2nc(NC(=O)c3ncc(C(F)(F)F)cc3Cl)ccc2F)CO[C@@](C)(C(F)(F)F)C(N)=N1
172

====

protocol.description: clinical
Type: in vivo, human
experimental.setup: both sexes, human, plasma, oral, 30 mg, AUC 0–24h, 30 mg, 14 days, Day 14, mean (CV%)
observed.property: AUC(0-t) (ng·h/mL)
Response body: numeric value in ng·h/mL, unit text excluded.

Answer with reported AUC(0-t) of C[C@@]1(c2nc(NC(=O)c3ncc(C(F)(F)F)cc3Cl)ccc2F)CO[C@@](C)(C(F)(F)F)C(N)=N1
3580

====

protocol.description: clinical
Format: in vivo, human
experimental.setup: human, plasma, oral, 300 mg, single dose 300 mg, adults (6), mean (%CV)
observed.property: AUC(0-inf) (ng·h/mL)
Response body: numeric value in ng·h/mL, unit text excluded.

Answer with reported AUC(0-inf) of C[C@@]1(c2nc(NC(=O)c3ncc(C(F)(F)F)cc3Cl)ccc2F)CO[C@@](C)(C(F)(F)F)C(N)=N1 [CNP520]
23500

The values you see were collected from paper PMC6220303.
